- System: SK-OV-3 ovarian
- method.description: NCI-60 one-dose screen, 48 h
- assay.context: 10 µM unless noted
- Method: Growth inhibition of the SK-OV-3 human tumor cell line is measured as a screen for anti-cancer activity. Cells are grown in 96 well plates and exposed to the test compound for 48 hours. Compounds are tested at a single concentration, which is 10^-5 M for most compounds. The reported endpoint is percent growth (GI% or GIPRCNT), where numbers from 0 - 100% represent growth inhibition, and numbers from -100% - 0 represent cell death. For example, a value of 40 represents 60% growth inhibition. […]
The panel holds about 83,000 compounds, 20% with a hit somewhere; the sample as a whole holds those more often. Calls of active or inactive are those of the source. Rule for the calls: active = growth percent below 10; inactive = the rest.
Possible outcomes: active, inactive

>  <compound>
CN(C)C(=O)c1cc2cnc(Nc3ccc(-c4csc5c(=S)cc(N6CCOCC6)oc45)cc3)nc2n1C1CCCC1

>  <class>
inactive

$$$$
>  <compound>
COc1nc(=O)n(C2C=CC(=O)O2)cc1F (stereo unspecified)

>  <class>
inactive

$$$$
>  <compound>
O=C(CC1(O)C(=O)Nc2ccc(Br)cc21)c1ccc(Cl)cc1 (stereo unspecified)

>  <class>
inactive

$$$$
>  <compound>
NS(=O)(=O)c1ccc(C(=O)N=Nc2c(O)[nH]c3c(F)cccc23)cc1

>  <class>
inactive

$$$$
>  <compound>
CCCCCCCCCCCCCCCC(=O)O[C@@H]1[C@@H](O)[C@@H](O)C([C@H](NC(=O)[C@@H]2C[C@@H](CCC)CN2C)[C@H](C)Cl)O[C@@H]1SC (stereo partly specified)

>  <class>
inactive

$$$$
>  <compound>
COc1ccc(-c2nnc3n(C)c(=O)c4ccccc4n23)cc1O

>  <class>
inactive

$$$$
>  <compound>
Cc1ccccc1SSc1ccccc1C

>  <class>
inactive

$$$$
>  <compound>
O=S(=O)(Nc1ccc(F)cc1)c1ccc(-c2cnc(C3CC3)o2)cc1

>  <class>
inactive

$$$$
>  <compound>
CCCNNC(=O)/C=C/c1ccc(CNCCc2c(C)[nH]c3ccccc23)cc1

>  <class>
active

$$$$
>  <compound>
Nc1nc(N)c2c(n1)NC(c1ccc(Cl)cc1)CC(c1cccc(Nc3ccncc3)c1)=N2 (stereo unspecified)

>  <class>
inactive

$$$$
>  <compound>
Nc1ncnc2c1C(c1ccc([N+](=O)[O-])cc1)c1sc3c(F)cccc3c1O2 (stereo unspecified)

>  <class>
inactive

$$$$
>  <compound>
Cc1cc2nc(C(Cl)Cl)nc(-c3ccc(Cl)cc3)n2n1

>  <class>
active

$$$$
>  <compound>
COc1cc(Cl)cc(-c2nn(C(=O)NS(=O)(=O)c3ccc(Cl)cc3)cc2-c2ccncc2)c1

>  <class>
inactive

$$$$
>  <compound>
N#Cc1c(N)nnn1Cc1cc(=O)oc2ccc(O)cc12

>  <class>
inactive

$$$$
>  <compound>
CC[C@@H]1NC(=O)[C@H]([C@H](O)[C@H](C)C/C=C/c2ccc(CN3C(=O)C(C)=C(C)C3=O)cc2)N(C)C(=O)[C@H](C(C)C)N(C)C(=O)[C@H](CC(C)C)N(C)C(=O)[C@H](CC(C)C)N(C)C(=O)[C@@H](C)NC(=O)[C@H](C)NC(=O)[C@H](CC(C)C)N(C)C(=O)[C@H](C(C)C)NC(=O)[C@H](CC(C)C)N(C)C(=O)CN(C)C1=O

>  <class>
inactive

$$$$
>  <compound>
CON1CCC[C@]2(C)[C@H]3CC[C@@H]4[C@H]5[C@@H](O)C(C)(C)CC[C@]5(CO)CC[C@@]4(C)[C@]3(C)CC[C@H]2C1(C)C

>  <class>
inactive

$$$$

====

growth values for the molecules below.
- System: NCI/ADR-RES ovarian
- method.description: NCI-60 one-dose screen, 48 h (100 = growth as untreated, 0 = no growth, -100 = all killed)
- assay.context: 10 µM unless noted
The panel holds about 83,000 compounds, 20% with a hit somewhere; the sample as a whole holds those more often.
quantity.measured: growth (%)

>  <molecule>
O=C1/C(=C/c2ccccc2)CN(C(=O)C(Cl)Cl)C/C1=C\c1ccccc1

>  <quantity.measured>
growth

>  <unit.name>
%

>  <val>
13.5

$$$$
>  <molecule>
Cc1ccc(C(=O)N(CCCN)[C@@H](c2nc3cc(Cl)ccc3c(=O)n2Cc2ccccc2)C(C)C)cc1

>  <quantity.measured>
growth

>  <unit.name>
%

>  <val>
-30.1

$$$$
>  <molecule>
Clc1ccc2c(NCCN3CCN(c4ccnc(N5CCCC5)n4)CC3)ccnc2c1

>  <quantity.measured>
growth

>  <unit.name>
%

>  <val>
49

$$$$
>  <molecule>
COC1/C=C/OC2(C)Oc3c(C)c(O)c4c(O)c(c(C=NOC(c5ccccc5)c5ccccc5)c(O)c4c3C2=O)NC(=O)/C(C)=C/C=C/C(C)C(O)C(C)C(O)C(C)C(OC(C)=O)C1C (stereo unspecified)

>  <quantity.measured>
growth

>  <unit.name>
%

>  <val>
28.9

$$$$
>  <molecule>
CCCN1C(=O)/C(=c2\sc3n(c2=O)NC2C(N=3)N(CC)C(=O)N2CC)c2ccccc21 (stereo unspecified)

>  <quantity.measured>
growth

>  <unit.name>
%

>  <val>
8.06

$$$$
>  <molecule>
O=S(=O)(Nc1ccc(F)cc1)c1ccc(-c2cnc(C3CC3)o2)cc1

>  <quantity.measured>
growth

>  <unit.name>
%

>  <val>
-0.888

$$$$
>  <molecule>
O=C(Oc1ccc(CO[N+](=O)[O-])cc1)c1ccccc1

>  <quantity.measured>
growth

>  <unit.name>
%

>  <val>
-82

$$$$
>  <molecule>
COc1cc(/C=C2\CCC/C(=C\c3cc(CN4CCCC4)c(O)c(OC)c3)C2=O)cc(CN2CCCC2)c1O

>  <quantity.measured>
growth

>  <unit.name>
%

>  <val>
59.8

$$$$
>  <molecule>
O=C1OCC2=C1C(c1cccc(C(F)(F)F)c1)c1cc3c(cc1N2CCO)OCCO3 (stereo unspecified)

>  <quantity.measured>
growth

>  <unit.name>
%

>  <val>
22.2

$$$$
>  <molecule>
Cn1cc(-c2csc(-c3c[nH]c4ccc(F)cc34)n2)c2cnccc21

>  <quantity.measured>
growth

>  <unit.name>
%

>  <val>
11.5

$$$$
>  <molecule>
CCCCSc1ccc2nc(-c3ccc(OCCCN=C(N)N)cc3)cn2c1

>  <quantity.measured>
growth

>  <unit.name>
%

>  <val>
104

$$$$

====

- System: SK-OV-3 ovarian
- method.description: NCI-60 one-dose screen, 48 h (100 = growth as untreated, 0 = no growth, -100 = all killed)
- assay.context: 10 µM unless noted
Compounds without any hit were thinned out: in the full panel of roughly 83,000, 20% have a hit.
// assign Y if growth falls strictly below 60%, else N (ties count as N)

>  <compound>
O=c1cc(N/N=C/c2ccc(F)cc2)c2cc(Cl)ccc2[nH]1

>  <class>
N

$$$$
>  <compound>
O=C(N=Nc1c(O)[nH]c2ccccc12)Nc1ccc(Br)cc1

>  <class>
N

$$$$
>  <compound>
CCCCCCCCn1ccc2cc(NC(=O)CN3CCN(c4nc(C)cc(N5CCCCC5)n4)CC3)ccc21

>  <class>
N

$$$$
>  <compound>
COc1ccc(/C=C/C(=O)c2cc3c(N)c(C(=O)Nc4ccccc4)sc3nc2C)cc1

>  <class>
Y

$$$$
>  <compound>
Cc1cc(N2CCN(CC(=O)Nc3ccc4c(ccn4Cc4ccccc4)c3)CC2)nc(N2CCCCCC2)n1

>  <class>
Y

$$$$
>  <compound>
Clc1nccc2c(-c3csc(-c4c[nH]c5ccc(Br)cc45)n3)c[nH]c12

>  <class>
Y

$$$$
>  <compound>
Oc1ccccc1C=Nc1ccc(N2CCN(c3ccccc3)CC2)cc1

>  <class>
N

$$$$
>  <compound>
CN(C)CCCn1c2c(c3ccc(N4CCNCC4)cc3c1=O)C(=O)c1ccccc1-2

>  <class>
Y

$$$$
>  <compound>
Clc1cccc(Nc2ncnc3ccc(-c4cncc(-n5cnnn5)c4)cc23)c1

>  <class>
Y

$$$$
>  <compound>
O=C1C(Nc2ccc(Cl)cc2)=C(I)C(=O)c2ncccc21

>  <class>
N

$$$$
>  <compound>
COc1ccc(-c2csc(NC(=O)CN3CCN(CCO)CC3)n2)cc1NS(=O)(=O)c1cccc2c(N(C)C)cccc12

>  <class>
N

$$$$
>  <compound>
COc1cc2nc3cc([N+](=O)[O-])ccc3c(NCCNCC(C)(C)O)c2cc1OC

>  <class>
Y

$$$$
>  <compound>
COc1ccccc1/C=C1\COc2ccc(O)cc2C1=O

>  <class>
N

$$$$
>  <compound>
Cc1ccc(/C=C(\C#N)c2cc3ccccc3[nH]2)cc1

>  <class>
N

$$$$
>  <compound>
S=c1nc(CS)[nH]c2ccccc12

>  <class>
N

$$$$
>  <compound>
COc1cc(/C=C2/C=C(c3ccc(C(C)(C)C)cc3)N(CCc3ccc(S(N)(=O)=O)cc3)C2=O)cc(OC)c1OC

>  <class>
N

$$$$
>  <compound>
Cc1ccc(C(=O)Nc2nc3c(s2)CN(Cc2ccccc2)CC3)cn1

>  <class>
N

$$$$
>  <compound>
COc1ccc(C2=C(CN)C(O)NC(=NCC(=O)c3ccc4ccccc4c3)N2)cc1 (stereo not drawn)

>  <class>
N

$$$$
